Test system: Escherichia coli TOP10
Experiment: shrunken log2 fold change of peptide-encoding DNA abundance (4.5 h post-induction vs induction); higher = less antimicrobial activity (less host growth inhibition)
Conditions: time post-induction: 4.5 h; library: site-saturation at positions 5, 18, 19, 20
assayEndpoint: shrunken log2 fold change
Number only, please.

# example entries with known answers
> print(dat)
          constructsequence              testtarget  numericresult
 1  RRIRTRPPRLPRPRPRPRLLPRP  Escherichia coli TOP10         0.0778
 2  RRIRLRPPRLPRPRPRPVCAPRP  Escherichia coli TOP10          0.174
 3  RRIRTRPPRLPRPRPRPVKRPRP  Escherichia coli TOP10         0.0411
 4  RRIRWRPPRLPRPRPRPDDRPRP  Escherichia coli TOP10          0.171
 5  RRIRDRPPRLPRPRPRPVETPRP  Escherichia coli TOP10          0.222
 6  RRIRGRPPRLPRPRPRPITIPRP  Escherichia coli TOP10         0.0958
 7  RRIRIRPPRLPRPRPRPGNIPRP  Escherichia coli TOP10         -0.479
 8  RRIRRRPPRLPRPRPRPAGKPRP  Escherichia coli TOP10          0.211
 9  RRIRHRPPRLPRPRPRPGDWPRP  Escherichia coli TOP10         -0.133
10  RRIRDRPPRLPRPRPRPRTDPRP  Escherichia coli TOP10         0.0936

Req: # shrunken log2 fold change lookup, item "RRIRVRPPRLPRPRPRPKFTPRP"
Resp: -0.0442

Req: Endpoint output: shrunken log2 fold change of "RRIRVRPPRLPRPRPRPGLWPRP" . Value?
Resp: 0.76

Req: Reported shrunken log2 fold change, sequence "RRIRRRPPRLPRPRPRPILDPRP" : ____
Resp: 0.0526

Req: Which value of shrunken log2 fold change has been reported for "RRIRFRPPRLPRPRPRPIQVPRP" in the records?
Resp: -0.228

Req: # shrunken log2 fold change lookup, item "RRIRPRPPRLPRPRPRPHNNPRP"
Resp: -0.692

====

Test system: Escherichia coli TOP10;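 also: peptides expressed intracellularly from a pBAD plasmid library in pooled LB shake-flask culture, induced with 0.3% L-arabinose, DNA abundance read by NGS, three biological replicates, DESeq2 with apeglm shrinkage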
Assay: shrunken log2 fold change of peptide-encoding DNA abundance (4.5 h post-induction vs induction); higher = less antimicrobial activity (less host growth inhibition)
Settings: time post-induction: 4.5 h; library: site-saturation at positions 5, 18, 19, 20
# shrunken log2 fold change per entry
# answer = number (no unit)

> print(dat)
          constructsequence  numericresult
 1  RRIRRRPPRLPRPRPRPERNPRP         -0.085
 2  RRIRFRPPRLPRPRPRPCNWPRP          0.128
 3  RRIRMRPPRLPRPRPRPTGCPRP          0.588
 4  RRIRRRPPRLPRPRPRPLALPRP          0.396
 5  RRIRSRPPRLPRPRPRPANIPRP         -0.484
 6  RRIRWRPPRLPRPRPRPSYAPRP         0.0124
 7  RRIRLRPPRLPRPRPRPIVVPRP        -0.0319
 8  RRIRRRPPRLPRPRPRPCWEPRP          0.109
 9  RRIRTRPPRLPRPRPRPFFMPRP         -0.231
10  RRIRQRPPRLPRPRPRPECFPRP          0.398

Req: GET /values?readout=shrunken log2 fold change&item= "RRIRDRPPRLPRPRPRPTDFPRP"
Resp: -0.0352

Req: So what does the record say about shrunken log2 fold change for "RRIRPRPPRLPRPRPRPSINPRP" ?
Resp: -0.756

Req: # get_value(readout='shrunken log2 fold change', item= "RRIRRRPPRLPRPRPRPCRFPRP" )
Resp: -0.0495

Req: Entry "RRIRTRPPRLPRPRPRPAHTPRP" : reported shrunken log2 fold change = ?
Resp: 0.09

Req: Name the reported shrunken log2 fold change value associated with the sequence "RRIRARPPRLPRPRPRPRATPRP"
Resp: 0.581

Req: Entry under review: "RRIRRRPPRLPRPRPRPYQSPRP" . Reported shrunken log2 fold change?
Resp: -0.145

Req: Recorded shrunken log2 fold change for "RRIRSRPPRLPRPRPRPDQRPRP" , please?
Resp: 0.0901

Req: For "RRIRMRPPRLPRPRPRPTMHPRP" , what is its reported shrunken log2 fold change?
Resp: 0.488

Req: Please report the recorded shrunken log2 fold change for "RRIRQRPPRLPRPRPRPTAVPRP" .
Resp: 0.165

Req: Any idea what shrunken log2 fold change was measured for "RRIRCRPPRLPRPRPRPTWRPRP" ?
Resp: 1.4

Req: Find the recorded shrunken log2 fold change belonging to "RRIRRRPPRLPRPRPRPAHKPRP" and report it.
Resp: 0.386

Req: Value lookup for shrunken log2 fold change; key = "RRIRNRPPRLPRPRPRPIKYPRP"
Resp: -0.068

Req: Any idea what shrunken log2 fold change was measured for "RRIRTRPPRLPRPRPRPFWIPRP" ?
Resp: -0.34

Req: Give its shrunken log2 fold change value. Item: "RRIRYRPPRLPRPRPRPWPHPRP"
Resp: 0.0143

Req: Look up shrunken log2 fold change: "RRIRIRPPRLPRPRPRPCSEPRP"
Resp: -0.0312

Req: Tell me the measured shrunken log2 fold change of "RRIRKRPPRLPRPRPRPDNIPRP" , please.
Resp: -0.0306

Req: What measured shrunken log2 fold change goes with "RRIRARPPRLPRPRPRPKETPRP" ?
Resp: 0.229

Req: Given the sequence "RRIRCRPPRLPRPRPRPLVNPRP" , what is its reported shrunken log2 fold change?
Resp: -0.841

Taken from the supplement of paper PMC9112550.
